- system.under.test: Androgen Receptor (AR) protein (Homo sapiens, UniProt P10275, T878A)
- Construct: endogenous in cells; host or cells: LNCaP
- Sequence (P10275 whole entry T878A): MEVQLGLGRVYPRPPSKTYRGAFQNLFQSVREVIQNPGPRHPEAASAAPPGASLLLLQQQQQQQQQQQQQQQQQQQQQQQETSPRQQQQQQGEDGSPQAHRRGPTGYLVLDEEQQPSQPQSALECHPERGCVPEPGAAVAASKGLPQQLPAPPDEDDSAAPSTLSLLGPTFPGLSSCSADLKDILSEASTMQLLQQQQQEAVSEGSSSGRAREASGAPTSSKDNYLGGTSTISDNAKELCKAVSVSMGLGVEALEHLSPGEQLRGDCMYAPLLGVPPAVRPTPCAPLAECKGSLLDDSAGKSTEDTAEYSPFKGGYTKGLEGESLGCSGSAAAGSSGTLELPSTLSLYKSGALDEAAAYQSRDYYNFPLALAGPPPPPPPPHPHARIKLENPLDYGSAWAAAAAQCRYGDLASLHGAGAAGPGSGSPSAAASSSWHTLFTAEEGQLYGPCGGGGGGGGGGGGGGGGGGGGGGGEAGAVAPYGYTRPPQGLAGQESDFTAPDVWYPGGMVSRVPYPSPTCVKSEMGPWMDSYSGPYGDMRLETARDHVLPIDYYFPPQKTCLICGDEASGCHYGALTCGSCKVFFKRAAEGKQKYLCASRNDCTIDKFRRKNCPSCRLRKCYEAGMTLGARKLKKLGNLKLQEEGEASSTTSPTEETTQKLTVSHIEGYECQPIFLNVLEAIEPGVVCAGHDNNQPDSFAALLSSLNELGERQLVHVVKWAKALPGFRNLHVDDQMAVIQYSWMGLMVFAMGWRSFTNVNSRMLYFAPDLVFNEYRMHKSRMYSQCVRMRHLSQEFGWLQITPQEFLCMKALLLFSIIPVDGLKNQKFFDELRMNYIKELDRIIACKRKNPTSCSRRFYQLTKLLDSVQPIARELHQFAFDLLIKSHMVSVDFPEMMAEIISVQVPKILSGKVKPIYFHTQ
- Sequence (Q96SW2 whole entry partner): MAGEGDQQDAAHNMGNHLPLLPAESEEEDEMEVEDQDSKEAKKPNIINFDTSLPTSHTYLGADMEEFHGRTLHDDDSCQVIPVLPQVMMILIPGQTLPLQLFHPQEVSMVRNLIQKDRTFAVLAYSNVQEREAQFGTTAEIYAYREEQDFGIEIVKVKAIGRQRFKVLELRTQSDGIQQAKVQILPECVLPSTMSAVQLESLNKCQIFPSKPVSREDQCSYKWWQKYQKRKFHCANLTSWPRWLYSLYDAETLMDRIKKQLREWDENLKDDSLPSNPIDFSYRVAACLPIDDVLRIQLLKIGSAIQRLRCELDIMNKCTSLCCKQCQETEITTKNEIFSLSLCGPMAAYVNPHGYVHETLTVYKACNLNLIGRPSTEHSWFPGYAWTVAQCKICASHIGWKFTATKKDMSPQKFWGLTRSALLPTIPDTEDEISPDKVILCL
- method.notes: Androgen Receptor (AR) protein degradation assay in LNCaP cells, western blotting
- Format: cell-based
- condition.parameters: 20 h, 0.01 μM compound
measured.metric: inhibition at 0.01 µM (%)
Kindly provide the numeric value in % only, without the unit symbol.

// below: answered molecules
Can you share its inhibition at 0.01 µM? I mean this molecule: N#Cc1ccc(N2CCC(C(=O)Nc3ccc(N4CCC(CN5CC6CN(c7ccc8c(c7)C(=O)N(C7CCC(=O)NC7=O)C8=O)CC6C5)CC4)cn3)CC2)cc1C(F)(F)F (centres unmarked) [Example 85]
24

Any idea what inhibition at 0.01 µM was measured for N#Cc1ccc(N2CCC(F)(C(=O)Nc3ccc(N4CCC(CN5CCN(CC6CCN(c7ccc8c(c7)CN(C7CCC(=O)NC7=O)C8=O)CC6)CC5)CC4)cn3)CC2)cc1C(F)(F)F (centres unmarked) [Example 144] ?
43

Tell me the measured inhibition at 0.01 µM of N#Cc1ccc(N2CCC(C(=O)Nc3ccc(N4CCN(C(=O)CCCCCNc5ccc6c(c5)C(=O)N(C5CCC(=O)NC5=O)C6=O)CC4)cn3)CC2)cc1Cl (centres unmarked) [Example 112] , please.
9

Next:
// inhibition at 0.01 µM lookup, key: N#Cc1ccc(N2CCC(C(=O)Nc3ccc(N4CCC(CN5CC[C@@H](CN6CCN(c7ccc8c(c7)C(=O)N(C7CCC(=O)NC7=O)C8=O)CC6)C5)CC4)cn3)CC2)cc1C(F)(F)F (some centres unmarked) [Example 83]
25

I'd like to know its inhibition at 0.01 µM. The molecule in question is C[C@@H]1CN(CC2CCN(c3ccc(NC(=O)C4CCN(c5ccc(C#N)c(C(F)(F)F)c5)CC4)nc3)CC2)CCN1CC1CN(c2ccc3c(c2)C(=O)N(C2CCC(=O)NC2=O)C3=O)C1 (some centres unmarked) [Example 26]
75

* * *

- system.under.test: Androgen Receptor (AR) protein (Homo sapiens, UniProt P10275, T878A)
- Construct: endogenous in cells; host or cells: LNCaP
- method.notes: Androgen Receptor (AR) protein degradation assay in LNCaP cells, western blotting
- Type: cell-based
- condition.parameters: 20 h, 1 μM compound
// reported inhibition at 1 µM for each item listed
API: value field is a number in %; no unit string.

Example results:
Look up inhibition at 1 µM: N#Cc1ccc(N2CCC(C(=O)Nc3ccc(OC4CCN(CC5CCN(c6ccc7c(c6)C(=O)N(C6CCC(=O)NC6=O)C7=O)CC5)CC4)cn3)CC2)cc1C(F)(F)F (centres unmarked)
99

Sample N#Cc1ccc(N2CCC(C(=O)Nc3ccc(N4CCC(CN5CCN(CCOc6ccc7c(c6)C(=O)N(C6CCC(=O)NC6=O)C7=O)CC5)CC4)cn3)CC2)cc1C(F)(F)F (centres unmarked) — what was its inhibition at 1 µM?
96

Param item = N#Cc1ccc(N2CCC(C(=O)Nc3ccc(OCCC4CCN(CC5CCN(c6ccc7c(c6)C(=O)N(C6CCC(=O)NC6=O)C7=O)CC5)CC4)cn3)CC2)cc1C(F)(F)F (centres unmarked) ; retrieve measured inhibition at 1 µM.
97

So what does the record say about inhibition at 1 µM for N#Cc1ccc(N2CCC(C(=O)Nc3ccc(C#CC4CCN(CC5CCN(c6ccc7c(c6)C(=O)N(C6CCC(=O)NC6=O)C7=O)CC5)CC4)cn3)CC2)cc1C(F)(F)F (centres unmarked) ?
82

Which inhibition at 1 µM is listed for CN(CCC1CCN(c2ccc(NC(=O)C3CCN(c4ccc(C#N)c(C(F)(F)F)c4)CC3)nc2)CC1)C1CCN(c2ccc3c(c2)C(=O)N(C2CCC(=O)NC2=O)C3=O)CC1 (centres unmarked) ?
92

Could you now look at the following compound, please?
# input compound: N#Cc1ccc(N2CCC(C(=O)Nc3ccc(N4CCC(CN5CCN(CC6CCN(c7ccc8c(c7)CN(C7CCC(=O)NC7=O)C8=O)CC6)CC5)CC4)cn3)CC2)cc1C(F)(F)F (centres unmarked) ; wanted: its inhibition at 1 µM
97

* * *

- system.under.test: Androgen Receptor (AR) protein (Homo sapiens, UniProt P10275, T878A)
- Construct: endogenous in cells; host or cells: LNCaP
- method.notes: Androgen Receptor (AR) protein degradation assay in LNCaP cells, western blotting
- Format: cell-based
- condition.parameters: 20 h, 1 μM compound
Classify as follows. Reported inhibition at 1 µM greater than or equal to 90%: condition met. Reported inhibition at 1 µM below: condition not met.

Identify whether the reported inhibition at 1 µM of the following compound is 90% or greater: CC1(C(=O)Nc2ccc(N3CCC(CN4CC5(CCN(c6ccc7c(c6)C(=O)N(C6CCC(=O)NC6=O)C7=O)CC5)C4)CC3)cn2)CCN(c2ccc(C#N)c(C(F)(F)F)c2)CC1 (centres unmarked) [Example 51]
condition met

Entry N#Cc1ccc(N2CCC(C(=O)Nc3ccc(N4CCC5(CC4)CN(CC4CN(c6ccc7c(c6)C(=O)N(C6CCC(=O)NC6=O)C7=O)C4)C5)cn3)CC2)cc1C(F)(F)F (centres unmarked) [Example 128] : is its inhibition at 1 µM no less than 90%?
condition not met

Now consider the entry below.
Can N#Cc1ccc(N2CCC(C(=O)Nc3ccc(N4CCC(CN5CC(CN6CCN(c7ccc8c(n7)CN(C7CCC(=O)NC7=O)C8=O)CC6)C5)CC4)cn3)CC2)cc1C(F)(F)F (centres unmarked) [Example 80] be said to have inhibition at 1 µM at or above 90%?
condition not met

* * *

- system.under.test: Androgen Receptor (AR) protein (Homo sapiens, UniProt P10275, T878A)
- Construct: endogenous in cells; host or cells: LNCaP
- method.notes: Androgen Receptor (AR) protein degradation assay in LNCaP cells, western blotting
- Type: cell-based
- condition.parameters: 20 h, 10 μM compound
measured.metric: inhibition at 10 µM
Give the figure together with its unit, number first.

Example entries and their recorded answers appear below.
Please give the measured inhibition at 10 µM for this molecule: N#Cc1ccc(N2CCC(C(=O)Nc3ccc(N4CCC(CN5CCN(C6CCN(c7ccc8c(c7)C(=O)N(C7CCC(=O)NC7=O)C8=O)CC6)CC5)CC4)cn3)CC2)cc1C(F)(F)F (centres unmarked) [Example 70]
97%

Need inhibition at 10 µM, item N#Cc1ccc(N2CCC(C(=O)Nc3ccc(N4CCC(CN5CC6(CCN(c7ccc8c(c7)C(=O)N(C7CCC(=O)NC7=O)C8=O)CC6)C5)CC4)nc3)CC2)cc1C(F)(F)F (centres unmarked) [Example 59]
68%

Record request: inhibition at 10 µM value, item N#Cc1ccc(N2CCC(C(=O)Nc3ccc(N4CCC(CN5CCN(C6CCN(c7ccc8c(c7)C(=O)N(C7CCC(=O)NC7=O)C8=O)CC6)CC5)CC4)cn3)CC2)cc1Cl (centres unmarked) [Example 71]
98%

Given N#Cc1ccc(N2CCC(C(=O)Nc3ccc(N4CC[C@@H](CN5CC6(CCN(c7ccc8c(c7)C(=O)N(C7CCC(=O)NC7=O)C8=O)CC6)C5)C4)cn3)CC2)cc1C(F)(F)F (some centres unmarked) [Example 61] , state its recorded inhibition at 10 µM.
96%

# context switch: different molecule, same inhibition at 10 µM
Give the measured inhibition at 10 µM of N#Cc1ccc(N2CCC(C(=O)Nc3ccc(N4CCN(CC5CCN(C(=O)CNc6ccc7c(c6)C(=O)N(C6CCC(=O)NC6=O)C7=O)CC5)CC4)cn3)CC2)cc1C(F)(F)F (centres unmarked) [Example 130] .
93%

* * *

- system.under.test: Androgen Receptor (AR) protein (Homo sapiens, UniProt P10275, T878A)
- Construct: endogenous in cells; host or cells: LNCaP
- method.notes: Androgen Receptor (AR) protein degradation assay in LNCaP cells, western blotting
- Type: cell-based
- condition.parameters: 20 h, 0.01 μM compound
Decide by inhibition at 0.01 µM: equal to or exceeding 40% means label 1, less means label 0.

Would you say N#Cc1ccc(N2CCN(C(=O)Nc3ccc(N4CCC(CN5CC6(CCN(c7ccc8c(c7)C(=O)N(C7CCC(=O)NC7=O)C8=O)CC6)C5)CC4)nc3)CC2)cc1Cl (centres unmarked) shows inhibition at 0.01 µM at minimum 40%?
label 0

For this molecule, is measured inhibition at 0.01 µM 40% or higher? N#Cc1ccc(N2CCC(C(=O)Nc3ccc(N4CCC(CN5CCN(C6CCN(c7ccc(C(=O)NC8CCC(=O)NC8=O)nc7)CC6)CC5)CC4)cn3)CC2)cc1C(F)(F)F (centres unmarked)
label 1

Hello, I need to know if N#Cc1ccc(N2CCC(C(=O)Nc3ccc(C#CC4CCN(CC5CN(c6ccc7c(c6)C(=O)N(C6CCC(=O)NC6=O)C7=O)C5)CC4)cn3)CC2)cc1C(F)(F)F (centres unmarked) has measured inhibition at 0.01 µM not below 40%. Thanks!
label 0

State whether the measured inhibition at 0.01 µM reaches 40%, counting equality as reaching it, for N#Cc1ccc(N2CCC(C(=O)Nc3ccc(OCCN4CCC(Oc5ccc6c(c5)C(=O)N(C5CCC(=O)NC5=O)C6=O)CC4)cn3)CC2)cc1C(F)(F)F (centres unmarked)
label 0

We now examine a further molecule.
Threshold query (inhibition at 0.01 µM >= 40%) on N#Cc1ccc(N2CCC(C(=O)Nc3ccc(OC4CCN(CC5CCN(c6ccc7c(c6)C(=O)N(C6CCC(=O)NC6=O)C7=O)CC5)CC4)nn3)CC2)cc1C(F)(F)F (centres unmarked)
label 1
